meta.source: patent US4826958A

Molecular target: human renal renin (Homo sapiens)
Sequence (P00797 67-406): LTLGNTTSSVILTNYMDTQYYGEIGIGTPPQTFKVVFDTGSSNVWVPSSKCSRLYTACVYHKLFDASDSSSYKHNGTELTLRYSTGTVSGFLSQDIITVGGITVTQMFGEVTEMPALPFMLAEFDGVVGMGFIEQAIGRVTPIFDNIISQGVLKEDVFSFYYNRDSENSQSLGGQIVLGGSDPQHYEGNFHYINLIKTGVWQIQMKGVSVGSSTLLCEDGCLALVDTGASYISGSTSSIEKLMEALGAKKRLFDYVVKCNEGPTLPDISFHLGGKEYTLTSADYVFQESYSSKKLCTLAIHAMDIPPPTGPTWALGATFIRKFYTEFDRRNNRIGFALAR
QUANTITY: IC50 (µM)
# value in µM; strip the unit string

Query block: I am curious: what IC50 value has been reported for CC(C)CC(NC(=O)C(Cc1cnc[nH]1)NC(=O)C(Cc1ccccc1)NC(=O)OC(C)(C)C)C(O)CC(=O)NCc1ccccc1 (stereo not drawn) [Example 10, Boc-Phe-His-Sta amide of benzylamine] ?
Result block: 0.7

Query block: What do we get for CCC(C)C(CO)NC(=O)CC(O)C(CC(C)C)NC(=O)C(C)NC(=O)C(Cc1cccc2ccccc12)NC(=O)OC(C)(C)C (centres unmarked) ?
Result block: 0.05

Query block: What do we get for CCC(C)CNC(=O)CC(O)C(CC(C)C)NC(=O)C(Cc1cnc[nH]1)NC(=O)C(Cc1ccccc1)NC(=O)CC(C)(C)C (centres unmarked) ?
Result block: 0.1

Query block: What do we get for CCOC(=O)N[C@@H](Cc1ccccc1)C(=O)N[C@@H](CC(C)C)C(=O)NC(CC1OCCCO1)C(O)CC(=O)NCC(C)CC (some centres unmarked) ?
Result block: 7.5

Query block: What do we get for CCC(C)CNC(=O)C(OCc1ccccc1)C(O)C(CC1CCCCC1)NC(=O)[C@H](C)NC(=O)[C@H](Cc1ccccc1)NC(=O)OC(C)(C)C (some centres unmarked) ?
Result block: 0.006

Query block: What do we get for CC(C)CNC(=O)CC(O)C(CC(C)C)NC(=O)C(Cc1cnc[nH]1)NC(=O)C(Cc1ccccc1)NC(=O)OC(C)(C)C (stereo not drawn) [Example 12, Boc-Phe-His-Sta amide of isobutylamine] ?
Result block: 0.5

Query block: What do we get for CCC(C)CNC(=O)C(O)C(O)C(CC1CCCCC1)NC(=O)C(Cc1cnc[nH]1)NC(=O)C(Cc1ccccc1)NC(=O)OC(C)(C)C (centres unmarked) ?
Result block: 0.007

Query block: What do we get for CCC(C)CNC(=O)CC(O)C(CC1SCCS1)NC(=O)C(Cc1cnc[nH]1)NC(=O)C(Cc1ccccc1)NC(=O)OC(C)(C)C (centres unmarked) ?
Result block: 0.0015

Query block: What do we get for CCC(C)CNC(=O)C(OC)C(O)C(CC1CCCCC1)NC(=O)C(CCSC)NC(=O)C(Cc1ccccc1)NC(=O)OC(C)(C)C (centres unmarked) ?
Result block: 0.001

Query block: What do we get for C=CCC(C(=O)NCC(C)CC)C(O)C(CC1CCCCC1)NC(=O)C(Cc1cnc[nH]1)NC(=O)C(Cc1ccccc1)NC(=O)OC(C)(C)C (centres unmarked) ?
Result block: 0.001

Query block: What do we get for CCC(C)CNC(=O)C(O)C(O)C(CC1CCCCC1)NC(=O)C(C)NC(=O)C(Cc1ccccc1)NC(=O)OC(C)(C)C (centres unmarked) ?
Result block: 0.02

Query block: What do we get for CCC(C)CNC(=O)C(OCc1ccccc1)C(O)C(CC1CCCCC1)NC(=O)C(Cc1cnc[nH]1)NC(=O)C(Cc1ccccc1)NC(=O)OC(C)(C)C (centres unmarked) ?
Result block: 0.035

Query block: What do we get for CC(C)CCNC(=O)CC(O)C(CC1CCCCC1)NC(=O)C(Cc1cnc[nH]1)NC(=O)C(Cc1ccccc1)NC(=O)OC(C)(C)C (centres unmarked) ?
Result block: 0.005

Query block: What do we get for CCC(C)CNC(=O)CC(O)C(CC1SCCCS1)NC(=O)C(CSC)NC(=O)C(Cc1ccccc1)NC(=O)OC(C)(C)C (centres unmarked) ?
Result block: 0.006
